- target-system: UniProtKB P11229
- measurement-protocol: mAChR M1 cell-based functional assay (calcium mobilization, potentiation of EC20 acetylcholine response)
- cond: positive allosteric modulation of EC20 ACh response, mAChR M1 CHO-K1 cells; <5 estimated where no plateau

compound-string	modifier-sign	pEC50
O=C1c2cccnc2CN1Cc1ccc(-c2ccc3cc[nH]c3c2)cc1F	<	5.00
Cn1ncc2ccc(-c3ccc(CN4Cc5cccnc5C4=O)c(F)c3)cc21	=	5.80
Cn1cc2cc(Nc3ccc(CN4Cc5ncccc5C4=O)c(F)c3)ccc2n1	=	5.43
O=C1c2ccccc2CN1Cc1ccc(-c2c[nH]nc2C(F)(F)F)cc1F	<	5.00
O=C1c2cccnc2CN1Cc1ccc(-c2ccc(Cl)nc2)cc1F	=	5.46
Cn1ncc2c(-c3ccc(CN4Cc5ncccc5C4=O)c(F)c3)cccc21	=	5.80
O=C1Cc2cc(-c3ccc(CN4Cc5ncccc5C4=O)c(F)c3)ccc2N1	=	6.25
Cn1cc2cc(-c3cc(F)c(CN4Cc5ncccc5C4=O)c(F)c3)ccc2n1	=	6.59
Cn1cc(-c2cnc(CN3Cc4ccccc4C3=O)c(F)c2)cn1	<	5.00
